Value source: PubChem BioAssay (NCI)

Test system: OVCAR-8 ovarian
Assay: NCI tumour cell line growth inhibition, 48 h
Each entry below carries its recorded GI50.

Illustrative cases are given below, each with its answer.
| compound | GI50 |
| --- | --- |
| Cn1c(=O)c(Oc2ccc(F)cc2)cc2cnc(NC3CCOCC3)nc21 | > 25 µM |
| Cc1cc(N(CCCNc2ccnc3cc(Cl)ccc23)Cc2ccc3c(c2)OCO3)nc(N2CCOCC2)n1 | 0.312 µM |
| CN1CC[C@@H](c2c(O)cc(O)c3c(=O)cc(-c4ccc(C(F)(F)F)cc4Cl)oc23)[C@@H]1CO | 18.2 µM |
| COc1ccc(C2=C(c3ccc(OC)cc3)C(=O)N3CCCC3C2)cc1 (stereo unspecified) | 10.4 µM |
| BrCc1cccc(C[P+](c2ccccc2)(c2ccccc2)c2ccccc2)c1 | 6.65 µM |

// query Look at this compound and give its reported GI50. Cc1nc2cc(Nc3nc(Nc4ccc(F)cc4)nc(-c4cccs4)n3)ccc2n1Cc1ccccc1
// result 3.54 µM
